This section presents binders with their documented ELISA value (wash 3x every hour for 4 HRS) values.
- System name: T1, Proleukin® (aldesleukin) (human, UniProt P60568 21-153, limits assumed)
- T1 construct: Variant of human wt IL-2 with C145S (C125S on mature IL-2); also called IL-2 (Proleukin®); human IL-2 (Proleukin)
- T1 sequence (P60568 other isoform, or with tags, fused parts or gaps limits assumed): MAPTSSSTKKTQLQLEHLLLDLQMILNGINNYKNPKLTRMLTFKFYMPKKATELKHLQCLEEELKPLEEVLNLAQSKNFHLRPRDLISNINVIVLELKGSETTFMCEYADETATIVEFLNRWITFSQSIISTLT
- Test description: ELISA, coated Proleukin, HEK293F supernatant 1:2
Measured parameter: ELISA value (wash 3x every hour for 4 HRS) (luminescence signal)

1. Antibody No: 25 (antibody, human IgG1, kappa, N297A, V domains shown, VK M33L + A50S; HEK293F supernatant) VH: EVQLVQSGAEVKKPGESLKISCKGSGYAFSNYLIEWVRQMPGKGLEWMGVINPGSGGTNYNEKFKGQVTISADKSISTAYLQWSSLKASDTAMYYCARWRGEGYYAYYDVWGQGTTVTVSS VL: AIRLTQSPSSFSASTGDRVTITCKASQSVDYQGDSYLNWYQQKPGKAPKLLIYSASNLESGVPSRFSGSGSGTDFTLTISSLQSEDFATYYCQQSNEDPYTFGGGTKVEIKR    3050
2. Antibody No: 27 (antibody, human IgG1, kappa, N297A, V domains shown, VH N58Y + T30S; VK M33L; HEK293F supernatant) VH: EVQLVQSGAEVKKPGESLKISCKGSGYAFSNYLIEWVRQMPGKGLEWMGVINPGSGGTYYNEKFKGQVTISADKSISTAYLQWSSLKASDTAMYYCARWRGEGYYAYFDVWGQGTTVTVSS VL: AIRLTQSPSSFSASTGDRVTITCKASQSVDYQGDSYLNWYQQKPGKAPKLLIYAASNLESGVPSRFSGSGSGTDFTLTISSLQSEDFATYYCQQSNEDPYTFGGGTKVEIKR    7000
3. Antibody No: 35 (antibody, human IgG1, kappa, N297A, V domains shown, VK M33L + A50S; HEK293F supernatant) VH: EVQLVQSGAEVKKPGESLKISCKGSGYAFSNYLIEWVRQMPGKGLEWMGVINPGSGGTYYNEKFKGQVTISADKSISTAYLQWSSLKASDTAMYYCARWRGEGYYAYYDVWGQGTTVTVSS VL: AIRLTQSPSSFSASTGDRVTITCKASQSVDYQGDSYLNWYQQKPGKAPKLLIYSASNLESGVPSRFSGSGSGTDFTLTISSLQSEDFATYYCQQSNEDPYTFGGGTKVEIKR    4040

# credit: patent US20210246200A1
